testDetails: Plasma concentrations during 7-day oral dosing in beagle dogs
Assay type: in vivo
experimentalParameters: male, beagle, dog, in vivo, po, 1.5 mg/kg/day, Plasma concentration of Compound 1, Mean
parameter: concentration at 8 h (ng/mL)
Please reply with the bare figure in ng/mL and do not write the unit itself.

Query: Return reported concentration at 8 h; argument: Cc1noc([C@@]23CNC[C@@H]2C3)n1
Response: 14.7

----------
testDetails: in vivo
experimentalParameters: cynomolgus monkey, po, 1 mg/kg
parameter: AUC(0-inf) (ng·h/mL)
Please reply with the bare figure in ng·h/mL and do not write the unit itself.

Query: Return reported AUC(0-inf); argument: Cc1noc([C@@]23CNC[C@@H]2C3)n1
Response: 988
